# System: 168753-222-R-J1-PDC complex spheroid viability;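 further: viability measured after seven days of drug exposure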
# protocol-text: Anticancer human tumor 168753-222-R-J1-PDC patient-derived bladder carcinoma cell line growth inhibition [CLK]
# measurement-parameters: curve of first compound; second compound 1 µM
test-readout: IC50

Some solved cases for reference:
CC(C)CC(NC(=O)C(Cc1ccccc1)NC(=O)c1cnccn1)B(O)O (stereo not given) + CN1CCN(c2cc(C(=O)Nc3cc4cc(-c5cnn(C)c5)ccc4cn3)ccn2)CC1    < 0.949 nM
C#Cc1c(F)ccc2cc(O)cc(-c3ncc4c(N5CC6CCC(C5)N6)nc(OCC56CCCN5CC(F)C6)nc4c3F)c12 (stereo not given) + CNC(=O)c1ccc(Nc2nc(OC3CCCC3)c3c(-c4ccc5nc(C)oc5c4)c[nH]c3n2)c(OC)c1    < 31.6 nM
COC1C=CCC(C)C(C)S(=O)(=O)NC(=O)c2ccc3c(c2)N(CC2CCC21)CC1(CCCc2cc(Cl)ccc21)CO3 (stereo not given) + CNC(=O)c1ccc(Nc2nc(OC3CCCC3)c3c(-c4ccc5nc(C)oc5c4)c[nH]c3n2)c(OC)c1    < 31.6 nM
CC1(C)CCC(CN2CCN(c3ccc(C(=O)NS(=O)(=O)c4ccc(NCC5CCOCC5)c([N+](=O)[O-])c4)c(Oc4cnc5[nH]ccc5c4)c3)CC2)=C(c2ccc(Cl)cc2)C1 + CNC(=O)c1ccc(Nc2nc(OC3CCCC3)c3c(-c4ccc5nc(C)oc5c4)c[nH]c3n2)c(OC)c1    45.8 nM

Now, please, on to the next molecule.
Which IC50 reading was recorded for the molecule CC(Nc1ccc2c(c1)OCCn1cc(N3C(=O)OCC3C(F)F)nc1-2)C(N)=O (stereo not given) + CN1CCN(c2cc(C(=O)Nc3cc4cc(-c5cnn(C)c5)ccc4cn3)ccn2)CC1 ?
< 31.6 nM
